Each item that follows carries a reported IC50.
# testedTarget: recombinant glucosyltransferase domain of C. difficile Toxin B/TcdB (Clostridioides difficile)
# Construct: 6-His (C); purchased R&D Systems 6246-GT
# assayProtocol: biochemical

INSERT INTO measurements (molecule, obsvalue) VALUES
  ('O=C1Nc2cc(Cl)ccc2C(=O)N(Cc2ccc(N3CCc4cccnc4C3=O)cc2)[C@@H]1Cc1ccccn1 [Example 49b]', '< 0.1 µM'),
  ('O=C1Nc2cc(Cl)ccc2C(=O)N(Cc2ccc(C(=O)n3ccc4cccnc43)c(Cl)c2)[C@@H]1Cc1ccccn1 [Example 4ab]', '< 0.1 µM');

I would be grateful if you could share the reported IC50 for O=C(CO)Nc1ccc(CN2C(=O)c3ccc(Cl)cc3NC(=O)[C@H]2Cc2ccccn2)cc1 [Example 27b] .
0.1 to 0.999 µM

I would be grateful if you could share the reported IC50 for O=C(Nc1ccccn1)c1ccc(C(=O)N2Cc3ccc(Cl)cc3NC(=O)[C@H]2Cc2ccccn2)cc1 [Example 19i] .
1 to 10 µM

I would be grateful if you could share the reported IC50 for Cn1cc(C(=O)c2ccc(CN3C(=O)c4ccc(Cl)cc4NC(=O)[C@H]3Cc3ccccn3)cc2)c2ncccc21 [Example 31a] .
< 0.1 µM

I would be grateful if you could share the reported IC50 for O=C(O)c1ccc(CN2C(=O)c3ccc(Cl)cc3NC(=O)[C@H]2Cc2ccccc2Cl)cc1 [Example 3i] .
1 to 10 µM

I would be grateful if you could share the reported IC50 for Cc1cccnc1C(=O)c1ccc(CN2C(=O)c3ccc(Cl)cc3NC(=O)[C@H]2Cc2ccccn2)cc1F [Example 11i] .
1 to 10 µM

###

# testedTarget: recombinant glucosyltransferase domain of C. difficile Toxin B/TcdB (Clostridioides difficile)
# Construct: 6-His (C); purchased R&D Systems 6246-GT
# assayProtocol: biochemical
pIC50: −log10 of the molar value.
Each item that follows carries a reported pIC50.

I would be grateful if you could share the reported pIC50 for O=C(Nc1ccccn1)c1ccc(CN2C(=O)c3ccc(Cl)cc3NC(=O)[C@H]2Cc2ccncc2)cc1 .
6.00 to 7.00

I would be grateful if you could share the reported pIC50 for Cc1ccc(NC(=O)c2ccc(CN3C(=O)c4ccc(NC(=O)c5cccnc5)cc4NC(=O)[C@H]3C)cc2)nc1 [Example 18e] .
5.00 to 6.00

###

# testedTarget: recombinant glucosyltransferase domain of C. difficile Toxin B/TcdB (Clostridioides difficile, UniProt P18177)
# Construct: 6-His (C); purchased R&D Systems 6246-GT
# Sequence (P18177 1-543): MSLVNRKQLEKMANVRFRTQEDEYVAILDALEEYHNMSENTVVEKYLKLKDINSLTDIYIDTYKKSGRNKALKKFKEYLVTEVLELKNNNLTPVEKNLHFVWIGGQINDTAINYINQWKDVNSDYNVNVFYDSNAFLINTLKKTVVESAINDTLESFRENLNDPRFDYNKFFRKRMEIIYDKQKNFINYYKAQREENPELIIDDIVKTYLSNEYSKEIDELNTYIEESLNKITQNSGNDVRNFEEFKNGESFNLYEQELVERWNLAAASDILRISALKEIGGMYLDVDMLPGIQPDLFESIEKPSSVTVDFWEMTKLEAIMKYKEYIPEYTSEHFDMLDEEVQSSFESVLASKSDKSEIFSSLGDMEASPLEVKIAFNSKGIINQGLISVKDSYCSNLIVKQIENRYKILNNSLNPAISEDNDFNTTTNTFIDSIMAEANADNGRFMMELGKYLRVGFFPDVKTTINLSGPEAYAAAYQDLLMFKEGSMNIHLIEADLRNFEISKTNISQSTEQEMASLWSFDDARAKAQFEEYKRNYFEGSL
# assayProtocol: biochemical
pIC50: −log10 of the molar value.
Each item that follows carries a reported pIC50.

Please review the entries below; each comes with its answer.
INSERT INTO assay_data (molecule, obsvalue) VALUES
  ('Cc1cnc2c(c1)CCN2C(=O)c1ccc(CN2C(=O)c3ccc(Cl)cc3NC(=O)[C@H]2Cc2ccccn2)cc1Cl', '> 7.00'),
  ('O=C(Nc1ccccn1)c1ccc(S(=O)(=O)N2Cc3ccc(Cl)cc3NC(=O)[C@H]2Cc2ccccn2)cc1 [Example 19b]', '> 7.00'),
  ('Cc1ccnc(NC(=O)c2ccc(CN3C(=O)c4ccc(Cl)cc4NC(=O)[C@H]3Cc3cccnc3)cc2)n1', '> 7.00'),
  ('CN(C(=O)c1ccc(CN2C(=O)c3ccc(Cl)cc3NC(=O)[C@H]2Cc2cccnc2)cc1)c1ccccn1', '6.00 to 7.00'),
  ('Cn1ccc(NC(=O)c2ccc(CN3C(=O)c4ccc(Cl)cc4NC(=O)[C@H]3Cc3cccnc3)cc2)n1', '6.00 to 7.00');

I would be grateful if you could share the reported pIC50 for CN(C)CCC(=O)Nc1cc(CN2C(=O)c3ccc(Cl)cc3NC(=O)[C@H]2Cc2ccccn2)ccc1C(=O)O [Example 22k] .
6.00 to 7.00

I would be grateful if you could share the reported pIC50 for NC(=O)c1ccc(CN2C(=O)c3ccc(Cl)cc3NC(=O)[C@@H]2Cc2ccc(Cl)c(Cl)c2)cc1 [Example 13a] .
4.46 to 5.00

###

Each item that follows carries a reported pIC50.
# testedTarget: C. difficile full-length toxin TcdB (Clostridioides difficile)
# Construct: C. difficile full-length toxins (TcdA or TcdB)
# Sequence (P18177 2-2366 limits assumed): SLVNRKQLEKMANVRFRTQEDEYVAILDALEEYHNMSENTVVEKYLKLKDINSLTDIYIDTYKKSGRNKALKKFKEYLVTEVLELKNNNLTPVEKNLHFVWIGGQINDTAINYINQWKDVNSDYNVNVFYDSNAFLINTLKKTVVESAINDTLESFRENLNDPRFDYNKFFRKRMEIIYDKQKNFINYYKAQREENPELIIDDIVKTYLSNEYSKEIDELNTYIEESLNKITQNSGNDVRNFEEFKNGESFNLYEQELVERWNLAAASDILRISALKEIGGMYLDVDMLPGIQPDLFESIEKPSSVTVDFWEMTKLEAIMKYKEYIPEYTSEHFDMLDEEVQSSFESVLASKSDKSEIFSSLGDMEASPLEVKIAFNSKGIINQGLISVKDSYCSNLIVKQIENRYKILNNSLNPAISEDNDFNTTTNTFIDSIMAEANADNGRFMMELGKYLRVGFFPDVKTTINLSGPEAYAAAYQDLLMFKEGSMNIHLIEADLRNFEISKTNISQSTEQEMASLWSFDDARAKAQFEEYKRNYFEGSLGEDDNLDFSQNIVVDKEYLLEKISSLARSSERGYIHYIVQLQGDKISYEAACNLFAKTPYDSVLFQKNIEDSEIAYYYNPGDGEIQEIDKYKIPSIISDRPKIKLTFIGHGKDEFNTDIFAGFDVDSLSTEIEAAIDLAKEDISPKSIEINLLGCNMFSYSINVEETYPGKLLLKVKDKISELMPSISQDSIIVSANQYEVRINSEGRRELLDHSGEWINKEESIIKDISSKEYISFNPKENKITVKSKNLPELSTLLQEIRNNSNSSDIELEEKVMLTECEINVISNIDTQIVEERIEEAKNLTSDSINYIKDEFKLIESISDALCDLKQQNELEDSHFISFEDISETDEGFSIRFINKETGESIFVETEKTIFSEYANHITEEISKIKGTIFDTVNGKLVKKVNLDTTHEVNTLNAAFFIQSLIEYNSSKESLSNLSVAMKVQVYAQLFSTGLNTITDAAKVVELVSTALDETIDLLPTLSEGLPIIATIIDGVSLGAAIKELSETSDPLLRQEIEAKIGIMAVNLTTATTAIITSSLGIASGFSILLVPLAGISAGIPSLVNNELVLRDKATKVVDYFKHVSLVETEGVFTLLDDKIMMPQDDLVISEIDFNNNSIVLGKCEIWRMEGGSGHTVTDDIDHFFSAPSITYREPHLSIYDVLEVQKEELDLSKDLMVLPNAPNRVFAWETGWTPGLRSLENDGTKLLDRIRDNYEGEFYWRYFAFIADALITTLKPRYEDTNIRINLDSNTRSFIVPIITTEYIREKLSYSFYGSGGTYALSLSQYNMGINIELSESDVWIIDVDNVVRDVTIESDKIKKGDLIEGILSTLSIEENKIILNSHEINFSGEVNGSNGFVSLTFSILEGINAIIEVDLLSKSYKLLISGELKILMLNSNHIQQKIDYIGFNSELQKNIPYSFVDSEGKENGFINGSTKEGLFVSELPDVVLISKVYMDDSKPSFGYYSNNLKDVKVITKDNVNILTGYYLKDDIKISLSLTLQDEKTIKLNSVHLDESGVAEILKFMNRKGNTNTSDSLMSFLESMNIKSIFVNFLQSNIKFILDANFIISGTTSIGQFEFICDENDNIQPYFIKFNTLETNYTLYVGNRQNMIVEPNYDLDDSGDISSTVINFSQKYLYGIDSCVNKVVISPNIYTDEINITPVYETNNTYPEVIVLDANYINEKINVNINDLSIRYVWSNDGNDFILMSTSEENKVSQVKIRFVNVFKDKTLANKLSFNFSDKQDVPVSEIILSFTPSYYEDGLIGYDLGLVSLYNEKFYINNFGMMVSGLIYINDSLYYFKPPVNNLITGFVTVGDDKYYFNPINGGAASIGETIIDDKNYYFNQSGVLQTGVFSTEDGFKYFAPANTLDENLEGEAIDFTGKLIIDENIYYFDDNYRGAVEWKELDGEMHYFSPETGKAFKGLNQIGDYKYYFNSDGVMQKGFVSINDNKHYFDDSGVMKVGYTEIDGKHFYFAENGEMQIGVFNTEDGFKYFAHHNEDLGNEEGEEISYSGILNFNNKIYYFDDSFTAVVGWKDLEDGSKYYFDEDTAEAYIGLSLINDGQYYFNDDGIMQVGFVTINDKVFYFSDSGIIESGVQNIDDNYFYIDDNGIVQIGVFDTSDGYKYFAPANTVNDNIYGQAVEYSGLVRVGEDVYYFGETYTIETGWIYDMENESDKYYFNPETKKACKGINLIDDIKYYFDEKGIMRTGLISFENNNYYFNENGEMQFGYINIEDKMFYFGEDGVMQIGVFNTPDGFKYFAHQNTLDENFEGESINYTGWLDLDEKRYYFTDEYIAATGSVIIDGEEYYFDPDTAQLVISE
# assayProtocol: cell-based
pIC50: −log10 of the molar value.

Please review the entries below; each comes with its answer.
INSERT INTO assay_data (molecule, quantitymeasured, obsvalue) VALUES
  ('COc1ccc(NC(=O)c2ccc(CN3C(=O)c4ccc(Cl)cc4NC(=O)[C@H]3Cc3ccccn3)cc2F)nc1', 'pIC50', '> 7.00'),
  ('O=C(c1ccc(CN2C(=O)c3ccc(Cl)cc3NC(=O)[C@H]2Cc2ccccn2)cc1)c1ccccn1 [Example 11a]', 'pIC50', '5.00 to 6.00'),
  ('Cc1ccc(NC(=O)c2ccc(CN3C(=O)c4ccc(Cl)cc4NC(=O)[C@H]3Cc3ccccn3)cc2Cl)nc1', 'pIC50', '> 7.00'),
  ('COc1cnc(NC(=O)c2ccc(CN3C(=O)c4ccc(Cl)cc4NC(=O)[C@H]3Cc3ccccn3)cc2OC)nc1', 'pIC50', '6.00 to 7.00'),
  ('O=C1Nc2cc(Cl)ccc2C(=O)N(Cc2ccc(N3Cc4cccnc4C3=O)cc2)[C@@H]1Cc1ccccn1 [Example 49c]', 'pIC50', '< 5.00'),
  ('Cc1cc(CN2C(=O)c3ccc(Cl)cc3NC(=O)[C@H]2Cc2ccccn2)ccc1C(=O)Nc1ccc(C(F)(F)F)cn1', 'pIC50', '> 7.00'),
  ('COc1cc(CN2C(=O)c3ccc(Cl)cc3NC(=O)[C@H]2Cc2ccccn2)ccc1C(=O)Nc1ncc(C)cn1', 'pIC50', '6.00 to 7.00'),
  ('COc1ccc(NC(=O)c2ccc(CN3C(=O)c4ccc(Cl)cc4NC(=O)[C@H]3Cc3ccccn3)cc2C)nc1', 'pIC50', '> 7.00');

I would be grateful if you could share the reported pIC50 for COc1ccc(NC(=O)c2ccc(CN3C(=O)c4ccc(Cl)cc4NC(=O)[C@H]3Cc3ccccn3)cc2Cl)nc1 .
> 7.00

I would be grateful if you could share the reported pIC50 for COc1cc(CN2C(=O)c3ccc(Cl)cc3NC(=O)[C@H]2Cc2ccccn2)ccc1C(=O)Nc1cnc(C)cn1 .
6.00 to 7.00

I would be grateful if you could share the reported pIC50 for O=C(Nc1ccc(CN2C(=O)c3ccc(Cl)cc3NC(=O)[C@H]2Cc2ccccn2)cc1)c1c[nH]cn1 [Example 27j] .
5.00 to 6.00

I would be grateful if you could share the reported pIC50 for Cc1ccc(C(=O)c2ccc(CN3C(=O)c4ccc(Cl)cc4NC(=O)[C@H]3Cc3ccccn3)cc2)nc1 [Example 11b] .
5.00 to 6.00

###

Each item that follows carries a reported IC50.
# testedTarget: recombinant glucosyltransferase domain of C. difficile Toxin B/TcdB (Clostridioides difficile, UniProt P18177)
# Construct: 6-His (C); purchased R&D Systems 6246-GT
# assayProtocol: biochemical

Please review the entries below; each comes with its answer.
INSERT INTO assay_data (compound, obsvalue) VALUES
  ('O=C1Nc2cc(Cl)ccc2C(=O)N(C[C@H]2CC[C@H](C(=O)Nc3ccc(F)cn3)CC2)[C@@H]1Cc1ccccn1', '< 0.1 µM'),
  ('Cc1ccc(NC(=O)c2ccc(CN3C(=O)c4ccc(Cl)cc4NC(=O)C3Cc3cnccn3)cc2)nc1 (stereo not shown)', '< 0.1 µM'),
  ('Cc1cnc(NC(=O)c2ccc(CN3C(=O)c4ccc(Cl)cc4NC(=O)[C@H]3Cc3ccccn3)s2)nc1', '0.1 to 0.999 µM');

I would be grateful if you could share the reported IC50 for Cc1cc(CN2C(=O)c3ccc(Cl)cc3NC(=O)[C@H]2Cc2ccccn2)ccc1C(=O)Nc1ccc(C(F)(F)F)cn1 .
< 0.1 µM

I would be grateful if you could share the reported IC50 for Cc1cnc2c(c1)CCN2C(=O)c1ccc(CN2C(=O)c3ccc(Cl)cc3NC(=O)[C@H]2Cc2ccccn2)cc1 .
< 0.1 µM

I would be grateful if you could share the reported IC50 for O=C1Nc2cc(Cl)ccc2C(=O)N(Cc2ccc(C(=NO)c3ccccn3)cc2)[C@@H]1Cc1ccccn1 (mixture of isomers) [Example 52a] .
0.1 to 0.999 µM

###

Each item that follows carries a reported pIC50.
# testedTarget: recombinant glucosyltransferase domain of C. difficile Toxin B/TcdB (Clostridioides difficile)
# Construct: 6-His (C); purchased R&D Systems 6246-GT
# assayProtocol: biochemical
pIC50: −log10 of the molar value.

Please review the entries below; each comes with its answer.
INSERT INTO results (molecule, obsvalue) VALUES
  ('O=C(O)c1ccc(CN2C(=O)c3ccc(Cl)cc3NC(=O)[C@@H]2Cc2ccccn2)cc1', '6.00 to 7.00'),
  ('O=C(Nc1ccccn1)c1ccc(CN2C(=O)c3ccc(Cl)cc3NC(=O)[C@H]2Cc2ccccn2)cc1F', '> 7.00'),
  ('Cc1ccc(NC(=O)c2ccc(CN3C(=O)c4ccc(Cl)cc4NC(=O)[C@H]3Cc3cccnc3)cc2)nc1', '> 7.00'),
  ('Cc1cccc(C(=O)c2ccc(CN3C(=O)c4ccc(Cl)cc4NC(=O)[C@H]3Cc3ccccn3)cc2)n1 [Example 11e]', '6.00 to 7.00'),
  ('O=C(c1ccc(CN2C(=O)c3ccc(Cl)cc3NC(=O)[C@H]2Cc2ccccn2)cc1)c1cccn2ncnc12 [Example 31f]', '> 7.00'),
  ('O=C(Nc1ccc(CN2C(=O)c3ccc(Cl)cc3NC(=O)[C@H]2Cc2ccccn2)cc1)c1cccnc1O [Example 27a]', '5.00 to 6.00'),
  ('Cc1ccc(NC(=O)c2ccc(CN3C(=O)c4ccc(Cl)cc4NC(=O)[C@H]3Cc3ccccn3)cc2Cl)nc1', '> 7.00'),
  ('Cn1ccnc1C(=O)c1ccc(CN2C(=O)c3ccc(Cl)cc3NC(=O)[C@H]2Cc2ccccn2)cc1 [Example 31c]', '6.00 to 7.00'),
  ('O=C(Nc1ccc(F)cn1)c1ccc(CN2C(=O)c3ccc(Cl)cc3NC(=O)[C@H]2Cc2ccccn2)cc1', '> 7.00'),
  ('O=C1Nc2cc(Cl)ccc2C(=O)N(Cc2ccc(CO)cc2)[C@@H]1Cc1ccccn1 [Example 41a]', '5.00 to 6.00');

I would be grateful if you could share the reported pIC50 for O=C1Nc2cc(Cl)ccc2C(=O)N(C[C@H]2CC[C@H](C(=O)c3cccc4cccnc34)CC2)[C@@H]1Cc1ccccn1 [Example 33a] .
4.46 to 5.00

I would be grateful if you could share the reported pIC50 for Cc1ccc(NC(=O)c2ccc(CN3C(=O)c4ccc(Cl)cc4NC(=O)[C@H]3CCO)cc2)nc1 .
6.00 to 7.00

I would be grateful if you could share the reported pIC50 for Cc1ccc(NC(=O)c2ccc(CN3C(=O)c4ccc(Cl)cc4NC(=O)[C@H]3Cc3ccccn3)cc2F)nc1 .
> 7.00

I would be grateful if you could share the reported pIC50 for C[C@@H]1C(=O)Nc2cc(Cl)ccc2C(=O)N1Cc1ccc(C(=O)N2CCc3cccnc32)cc1 .
> 7.00

I would be grateful if you could share the reported pIC50 for O=C(Nc1ccccn1)c1ccc(CN2C(=O)c3ccc(Cl)cc3NC(=O)[C@H]2Cc2cccc(F)c2)cc1 [Example 35j] .
> 7.00

I would be grateful if you could share the reported pIC50 for NC(=O)c1ccc(CN2C(=O)c3ccc(Cl)cc3NC(=O)[C@H]2Cc2cccnc2)cc1 [Example 13c] .
5.00 to 6.00

I would be grateful if you could share the reported pIC50 for O=C(NO)c1ccc(CN2C(=O)c3ccc(Cl)cc3NC(=O)[C@H]2Cc2ccccn2)cc1 [Example 40a] .
> 7.00
